target_desc: WD repeat-containing protein 5 (WDR5), truncated construct, residues 24-334 (mouse, UniProt P61965 24-334)
measurement_description: ITC; peptide (0.5 to 1.0 mM) titrated into WDR5 protein (44.5 μM) in the cell; 20 °C; Buffer D (20 mM Tris-HCl, 200 mM NaCl, pH 7.5); single binding site model
test_conditions: both partners purified
experimental_endpoint: Kd (nM)

(I) GAARCRVASPQG (numbers count on: isoform MBD3C; also called MBD3C^F47A; source: synthetic peptide (GenScript)) [MBD3C_(40-51) (F47A) peptide]
(II) GAAKCRVFSPQG (numbers count on: isoform MBD3C; also called MBD3C^R43K; source: synthetic peptide (GenScript)) [MBD3C_(40-51) (R43K) peptide]
INPUT: Given I and given II , which shows the smaller recorded Kd? Use the label to indicate which entry you chose.
OUTPUT: I

(a) GAARCEVFSPQG (numbers count on: isoform MBD3C; also called MBD3C^R45E; source: synthetic peptide (GenScript)) [MBD3C_(40-51) (R45E) peptide]
(b) GAARCRVHSPQG (numbers count on: isoform MBD3C; also called MBD3C^F47H; source: synthetic peptide (GenScript)) [MBD3C_(40-51) (F47H) peptide]
INPUT: Form field 'greater Kd' accepts a or b ; which applies? Identify your selection by its label.
OUTPUT: b
(b: 1010 nM, a: 670 nM)
